# System: phosphorylated human Tau [pS396] in SHSY5Y cells
# ASSAY PROTOCOL: Inhibition of tau phosphorylation in SHSY5Y cells (Tau [pS396] sandwich ELISA)
# Format: cell-based
# Design: key: “NEG” means no tau phosphorylation inhibition was detected at the referred concentration of compound (I); “POS” means that at the referred concentration tau phosphorylation inhibition was detected
# CONDITIONS USED: 50 μM compound, 18 h
MEASUREMENT KIND: Tau phosphorylation inhibition in cells

>  <CHEM SMILES>
O=C(Cc1ccccn1)Nc1ncc([N+](=O)[O-])s1

>  <RESULT>
NEG

$$$$
>  <CHEM SMILES>
O=C(Cc1ccccc1)Nc1ncc([N+](=O)[O-])s1

>  <RESULT>
POS

$$$$
>  <CHEM SMILES>
O=C(Cc1cccnc1)Nc1ncc([N+](=O)[O-])s1

>  <RESULT>
POS

$$$$
>  <CHEM SMILES>
O=C(Cc1cccnc1)Nc1ncc(Cl)s1

>  <RESULT>
NEG

$$$$
>  <CHEM SMILES>
O=C(CCc1cccnc1)Nc1ncc([N+](=O)[O-])s1

>  <RESULT>
POS

$$$$

Each recorded value in this set is attributed to patent US20090221647A1.
